Experimental Target: human CRTH2 (Homo sapiens, UniProt Q9Y5Y4)
Sequence (Q9Y5Y4 whole entry): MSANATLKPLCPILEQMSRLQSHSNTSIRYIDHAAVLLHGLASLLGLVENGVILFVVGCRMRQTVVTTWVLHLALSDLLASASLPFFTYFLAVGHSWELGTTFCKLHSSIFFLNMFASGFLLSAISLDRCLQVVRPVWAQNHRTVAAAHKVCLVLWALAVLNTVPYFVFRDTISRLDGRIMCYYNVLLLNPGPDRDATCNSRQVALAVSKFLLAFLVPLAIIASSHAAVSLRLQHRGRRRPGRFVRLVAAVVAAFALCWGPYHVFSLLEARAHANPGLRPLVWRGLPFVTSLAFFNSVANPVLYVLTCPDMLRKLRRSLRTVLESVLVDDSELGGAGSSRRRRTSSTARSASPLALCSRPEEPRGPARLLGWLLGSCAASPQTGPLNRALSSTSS
Assay Summary: Human CRTH2 Receptor Binding Assay (whole cell, [3H]ramatroban competition)
Set-up: expressed in transfected cells; host or cells: CHO-K1 (co-transfected with G-alpha16)
Stated Conditions: CHO-K1 cells expressing human CRTH2 and G-alpha16; 20 nM [3H]ramatroban; 1 hour, room temperature
Parameter Measured: IC50 (nM)
Answers are plain numbers, in nM.

- Structure Notation: "CC(C)N(C)c1cc(C(F)(F)F)cc(S(=O)(=O)N(C)[C@@H]2CCCc3c(OCC(=O)O)cccc32)c1"
  Parameter Measured: "IC50"
  Quantity Unit: "nM"
  Measured Result: 410
- Structure Notation: "CCN(CC)c1cc(C(F)(F)F)cc(S(=O)(=O)N(C)[C@@H]2CCCc3c(OCC(=O)O)cccc32)c1"
  Parameter Measured: "IC50"
  Quantity Unit: "nM"
  Measured Result: 773

Would you be so kind as to report IC50 for each listed record?
1. O=C(O)COc1cccc2c1CCC[C@H]2NS(=O)(=O)c1cc(C(F)(F)F)cc(C(F)(F)F)c1
2. Cc1cc(C)cc(S(=O)(=O)N[C@@H]2CCCc3c(OCC(=O)O)cccc32)c1

[6.3, 310]
